RUN_DESCRIPTION: chemical genetic growth profiling, strain panel (AID 1159580);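 further: tested at 20 µM; growth read once vehicle control cultures reached saturation at 30 °C; 1 = growth at the plate median or of vehicle wells; lower values mean less growth of the strain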
ASSAY_CONDITIONS: S. cerevisiae deletion strains, growth OD, locus YOR184W, strain ser1
The whole screen tested about 5,500 compounds, of which about 2,000 (36%) were called active. Another 18% or so got no clear call; they are omitted. No stated cut-off is given here; in the data, active means normalized growth mostly below about 0.91 (no sharp cut-off); inconclusive means no clear call, values can overlap the other calls; inactive means mostly above about 0.92. Some of the results follow.
// allowed return values: active, inactive

Hi team, can someone confirm the assay call for CC[C@H](C)C(=O)O[C@H]1C[C@@H](C)C=C2C=C[C@H](C)[C@H](CC[C@@H]3C[C@@H](O)CC(=O)O3)[C@H]21 ? inactive

Hi team, can someone confirm the assay call for Cc1cc(-c2ccccc2)nnc1NCCN1CCOCC1 ? inactive

Hi team, can someone confirm the assay call for CCC(C)(C)C(=O)O[C@H]1C[C@@H](C)C=C2C=C[C@H](C)[C@H](CC[C@@H]3C[C@@H](O)CC(=O)O3)[C@H]21 ? inactive

Hi team, can someone confirm the assay call for CCN(CC)C(=O)c1cccc(C)c1 ? inactive

Hi team, can someone confirm the assay call for COC(=O)C(O)c1ccccc1 (configuration not stated) ? inactive

Hi team, can someone confirm the assay call for OC(Cn1cncn1)(Cn1cncn1)c1ccc(F)cc1F ? inactive

Hi team, can someone confirm the assay call for Cc1c(Cl)cccc1Nc1ccccc1C(=O)O ? active

Hi team, can someone confirm the assay call for Cc1cccc(C)c1NC1=NCCCS1 ? inactive

Hi team, can someone confirm the assay call for Oc1ccc(Cl)cc1Cc1cc(Cl)ccc1O ? active

Hi team, can someone confirm the assay call for CC(C(=O)O)c1ccc(C(=O)c2cccs2)cc1 (configuration not stated) ? inactive

Hi team, can someone confirm the assay call for CC(C)(C)CC(C)(C)c1ccc(O)c(Cc2ccc(Cl)cc2Cl)c1 ? inactive

Hi team, can someone confirm the assay call for Cc1cccc(Nc2ccccc2C(=O)O)c1C ? active

###

Would you mind telling me the reported normalized growth of each entry?
RUN_DESCRIPTION: chemical genetic growth profiling, strain panel (AID 1159580);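 further: tested at 20 µM; growth read once vehicle control cultures reached saturation at 30 °C; 1 = growth at the plate median or of vehicle wells; lower values mean less growth of the strain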
ASSAY_CONDITIONS: S. cerevisiae deletion strains, growth OD, locus YLR418C, strain cdc73, hits give low values
About 2,000 (36%) of roughly 5,500 compounds were called active. Inconclusive results (about 18%) are left out. The list shows a part of the results.

Briefly, normalized growth measured for CO/N=C(\C(=O)N[C@@H]1C(=O)N2C(C(=O)O)=C(COC(C)=O)CS[C@H]12)c1csc(N)n1 : 1.01 (inactive)

Briefly, normalized growth measured for COc1ccc2c(c1)CCC(c1ccccc1)=C2c1ccc(OCCN2CCCC2)cc1 : 0.295 (active)

Briefly, normalized growth measured for CO/N=C(\C(=O)N[C@@H]1C(=O)N2C(C(=O)O)=C(CSc3nc(=O)c(O)nn3C)CS[C@H]12)c1csc(N)n1 : 0.994 (inactive)

Briefly, normalized growth measured for C=C1CCC2C(CC2(C)C)C(=O)CCC1O (stereo not drawn) : 1.05 (inactive)

Briefly, normalized growth measured for CCNC(=O)CC[C@H](N)C(=O)O : 1.02 (inactive)

Briefly, normalized growth measured for C=C1CCC2C(CC2(C)C)C(=C)CC/C1=N\O (stereo not drawn) : 0.847 (inactive)

Briefly, normalized growth measured for COc1cc2c(cc1OC)C1Cc3ccc(OC)c(OC)c3CN1CC2 (stereo not drawn) : 1.02 (inactive)

Briefly, normalized growth measured for C=C1CCC(C2CC(=O)OC2=O)C(=O)CCC2C1CC2(C)C (stereo not drawn) : 1.09 (inactive)

Values were extracted from PubChem BioAssay AID1159580.
